Entries with reported GI50 on MV4,11 human leukemia cells
Numbers only; they are read as µM.

O=C(Cc1ccc(Cl)c(Cl)c1)N[C@@H]1CCc2ccc(-c3cn4c(n3)CCC4)cc21 [Example B11] = 8.89
COc1cc(C(=O)N[C@@H]2CCc3ccc(-c4cn5c(n4)CCC5)cc32)ccc1C [Example B12] = 17.2
COc1cc(C(=O)N[C@@H]2CCCc3ccc(-c4cn5c(n4)CCC5)cc32)ccc1C [Example B14] = 22.3

Turning now to a further molecule:
System MV4,11 human leukemia cells. Read-out GI50. Item COc1cc(C(=O)N[C@@H]2CCc3ccc(-c4cn5c(n4)CCC5)cc32)cc(OC)c1C [Example B29] . Report value.
7.25
